molecular target: recombinant HIV-1 p66/51 reverse transcriptase (Human immunodeficiency virus type 1 group M subtype B); construct: recombinant HIV-1 p66/51 reverse transcriptase; test: Inhibition of p66/51 reverse transcriptase; format: biochemical; conditions: p66/51 1 unit/rxn, (rA)n.(dT)12-18; read-out: 1C 50
property-label: IC50 (nM)
Express your answer in nM, writing the number without its unit.

Input: Param item = Cc1cn([C@H]2C[C@H](N=[N+]=[N-])[C@@H](CO[P@](=O)(O)O[P@](=O)(O)OP(=O)(O)O)O2)c(=O)[nH]c1=O ; retrieve measured IC50.
Output: 21

###

molecular target: recombinant HIV-1 p66/51 reverse transcriptase (Human immunodeficiency virus type 1 group M subtype B, UniProt P04585); construct: recombinant HIV-1 p66/51 reverse transcriptase; test: Inhibition of p66/51 reverse transcriptase; type: biochemical; settings: poly (rA)n oligo (dT)12 template primer; text b87, unit inferred; read-out: IC50 against RT
property-label: pIC50
Worth noting: pIC50 values are minus log10 of concentrations stated in mol/L.

Input: GET /values?readout=pIC50&item= Cc1cn([C@H]2C[C@H](N=[N+]=[N-])[C@@H](CO)O2)c(=O)[nH]c1=O
Output: 7.68
